Test system: RPMI-8226 leukemia
test_summary: NCI tumour cell line growth inhibition, 48 h
value_type: GI50

[[record]]
compound = "COC(=O)Nc1nc2c(OC)c(OC)c(OC)cc2[nH]1"
system_tested = "RPMI-8226 leukemia"
value_type = "GI50"
reported_result = "35.6 µM"

[[record]]
compound = "CC(=O)OCCC/C(=C\\c1ccc2ccccc2c1)[N+](=O)[O-]"
system_tested = "RPMI-8226 leukemia"
value_type = "GI50"
reported_result = "1.55 µM"

[[record]]
compound = "COc1cc(C(=O)/C=C/c2c(-c3ccc(F)cc3)nc3sccn23)cc(OC)c1OC"
system_tested = "RPMI-8226 leukemia"
value_type = "GI50"
reported_result = "2.59 µM"

[[record]]
compound = "O=C1Nc2ccccc2C12CC(c1ccccc1)=NN2 (stereo unspecified)"
system_tested = "RPMI-8226 leukemia"
value_type = "GI50"
reported_result = "5.53 µM"

[[record]]
compound = "COC(=O)C1CC2(c3ccc(C)cc3)C(c3ccc(C)cc3)=C(c3ccc(C)cc3)C1(c1ccc(C)cc1)S2=O (stereo unspecified)"
system_tested = "RPMI-8226 leukemia"
value_type = "GI50"
reported_result = "> 100 µM"


# ---- query compound ----
GET /value?item= CC(=O)OC1CCC2(C)C(CCC3C2CCC2(C)C(C4=CC(=O)OC4)CCC32)C1 (stereo unspecified) &field=GI50 returns 0.928 µM

###

Would you kindly list TGI for each of these molecules?
Test system: HL-60(TB) leukemia
test_summary: NCI tumour cell line growth inhibition, 48 h

Some molecules with known TGI results, for comparison:
[[record]]
molecule = "COc1cc2c(c3oc(-c4ccc5c(c4)OCO5)c(O)c(=O)c13)CCC(C)(C)O2"
value_type = "TGI"
reported_result = "> 100 µM"

[[record]]
molecule = "c1ccc(Cn2cc3c(c2)-c2oncc2CC3)cc1"
value_type = "TGI"
reported_result = "0.939 µM"


# ---- query molecule ----
GET /value?item= CC(C)(C)OC(=O)NC(CCCCNC(=O)OCc1ccccc1)C(=O)NC(CCCCNC(=O)OCc1ccccc1)C(=O)ON1C(=O)CCC1=O (stereo not drawn) &field=TGI returns > 100 µM

###

Would you kindly list TGI for each of these compounds?
Test system: NCI-H460 lung
test_summary: NCI tumour cell line growth inhibition, 48 h

For each of the compounds below, note its TGI.
1. CC12C=CC(C)(O1)C1C2c2ccccc2S1(=O)=O (stereo unspecified)
2. CC(/C=N/NC1=NCCCCN1)=N\NC1=NCCCCN1
3. CNC1=C(C)C(=O)C(C)=C(C(C)(C)CC(=O)n2cc(F)c(=O)[nH]c2=O)C1=O
4. COc1ccc(OC)c(CNc2ccc(O)c(C(=O)NCCc3ccc(F)cc3)c2)c1

A:
1. > 100 µM
2. > 100 µM
3. > 100 µM
4. > 100 µM

###

System: PC-3 prostate
test_summary: NCI tumour cell line growth inhibition, 48 h
value_type: TGI

Some molecules with known TGI results, for comparison:
[[record]]
molecule = "ClCc1c(-c2ccccc2)nn(-c2ccccc2)c1CCl"
value_type = "TGI"
reported_result = "21.4 µM"

[[record]]
molecule = "COc1ccc(C(=O)Nc2ncc(Cc3ccc(F)cc3)s2)cc1"
value_type = "TGI"
reported_result = "> 100 µM"

[[record]]
molecule = "O=C1Nc2ccccc2NC1C1OC(c2ccccc2)=CC1=O (stereo unspecified)"
value_type = "TGI"
reported_result = "> 100 µM"

[[record]]
molecule = "NCCCCNCCCN"
value_type = "TGI"
reported_result = "> 100 µM"

[[record]]
molecule = "O=C1OCC2=C1C(c1cccc(F)c1)c1cc3c(cc1N2CCO)OCCO3 (stereo unspecified)"
value_type = "TGI"
reported_result = "> 50 µM"


For each of the molecules below, note its TGI.
1. N=C1N=C(N)c2cc3c(cc21)SCCSCCCSCCS3
2. Cc1cc(C)cc(Nc2nccc(-c3c(-c4ccc(F)cc4)ncn3C3CCNCC3)n2)c1
3. O=C(CCCn1ccnc1[N+](=O)[O-])NCCn1cnc([N+](=O)[O-])c1
4. CC(=O)Oc1ccc(OC(Oc2ccccc2)c2ccccc2)cc1 (stereo unspecified)
5. COc1ccc2[nH]c(C(=O)N3CC(CCl)c4ccc([N+](=O)[O-])cc43)cc2c1 (stereo unspecified)

A:
34.7 µM
3.01 µM
> 100 µM
> 100 µM
> 100 µM

For each of the molecules below, note its TGI.
1. c1ccc(Cn2cc3c(c2)-c2oncc2CC3)cc1
2. Cc1nnc(N)nc1/C=C\c1cccs1
3. COc1cc(C(=O)/C=C/c2c(-c3ccc(F)cc3)nc3sccn23)cc(OC)c1OC
4. COc1ccc(S(=O)(=O)O)cc1NS(=O)(=O)c1ccc(C)cc1

A:
1. > 100 µM
2. 56.4 µM
3. > 46.2 µM
4. > 100 µM

For each of the molecules below, note its TGI.
1. COc1ccc(OC)c(CNc2ccc(O)c(C(=O)NCCc3ccc(F)cc3)c2)c1
2. COc1cc(N(C)C)ccc1/C=c1/c2ccccc2n2c1cc(-c1ccccc1)[n+]2C
3. O=C(Nc1ccc2ccccc2c1)Nn1cnnc1
4. CC(C)[C@@H](C(=O)O[C@@H]1/C=C/C(=O)O[C@@H](C)CCC/C=C/[C@@H]2C[C@H](O)C[C@H]21)[N+](C)(C)C
5. N/C(=N\Nc1nc2cc([N+](=O)[O-])ccc2o1)c1ccccn1

A:
["32.1 µM", "1.1 µM", "> 100 µM", "> 100 µM", "6.14 µM"]
